# systemUnderTest: Amyloid-beta precursor protein (Homo sapiens, UniProt P05067)
# Sequence (P05067 whole entry): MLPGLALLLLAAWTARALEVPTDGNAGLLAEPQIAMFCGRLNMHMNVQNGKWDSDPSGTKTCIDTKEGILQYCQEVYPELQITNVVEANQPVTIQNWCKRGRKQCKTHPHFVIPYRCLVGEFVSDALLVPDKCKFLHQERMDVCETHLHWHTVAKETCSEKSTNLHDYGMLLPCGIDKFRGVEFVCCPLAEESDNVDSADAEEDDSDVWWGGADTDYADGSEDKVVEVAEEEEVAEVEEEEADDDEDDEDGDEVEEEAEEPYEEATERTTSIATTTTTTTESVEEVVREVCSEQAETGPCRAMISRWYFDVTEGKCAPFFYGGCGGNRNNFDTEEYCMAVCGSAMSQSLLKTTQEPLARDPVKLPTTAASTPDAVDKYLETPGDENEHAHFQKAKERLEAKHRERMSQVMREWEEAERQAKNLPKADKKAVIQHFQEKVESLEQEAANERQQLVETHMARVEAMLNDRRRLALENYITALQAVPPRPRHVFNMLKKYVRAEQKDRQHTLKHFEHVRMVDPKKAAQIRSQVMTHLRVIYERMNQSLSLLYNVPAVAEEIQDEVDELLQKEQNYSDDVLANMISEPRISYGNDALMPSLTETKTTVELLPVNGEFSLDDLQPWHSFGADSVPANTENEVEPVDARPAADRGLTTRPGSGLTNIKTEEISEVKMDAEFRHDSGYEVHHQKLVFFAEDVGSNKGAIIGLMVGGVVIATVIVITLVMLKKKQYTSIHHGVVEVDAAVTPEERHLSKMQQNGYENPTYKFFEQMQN
# experimentNotes: Inhibition of amyloid beta42 aggregation assessed as reduction in fluorescence measured immediately post-compound addition by thioflavin T-based fluorometry
measurementLabel: IC50 (µM)

I. Cc1ccc(NS(=O)(=O)c2ccc(Cl)cc2)c(N)c1
II. Cc1ccc(NS(=O)(=O)c2ccc(Cl)cc2)c(/N=C/c2cc(Cl)cc(Cl)c2O)c1
QUERY: For the pair I and II , which member has the lower IC50 number? Output the label that corresponds to your choice.
RESULT: I

---

# systemUnderTest: Amyloid-beta precursor protein (Homo sapiens, UniProt P05067)
# experimentNotes: Inhibition of amyloid beta42 aggregation assessed as reduction in fluorescence after 4 days by thioflavin T-based fluorometry
measurementLabel: IC50 (µM)

P. Cc1ccc(NS(=O)(=O)c2ccc(Cl)cc2)c(/N=C/c2cc(Cl)cc(Cl)c2O)c1
Q. Cc1ccc(NS(=O)(=O)c2ccc(Cl)cc2)c(N)c1
QUERY: So which one has the bigger IC50 here, P or Q ? Refer to your chosen item by its label in the answer.
RESULT: Q
(Q: 23 µM, P: 13 µM)
